# Test system: C8166
# ASSAY METHOD TEXT: Effective dose that inhibits cellular growth of C8166 cells infected with HIV-2 rod strain
# Format: functional, cell-based
# DETAILS: Homo sapiens
PROPERTY: pEC50
Give bare numbers, as −log10 of the molar value.

Record request: pEC50 value, item CC(C)[C@H](NC(=O)OCc1ccccc1)C(=O)NC(Cc1ccc(OCc2ccccc2)cc1)C(=O)C(F)(F)C(=O)NCc1ccccc1 (stereo partly specified)
6.46

----------
# TARGET: Human immunodeficiency virus type 1 protease (Human immunodeficiency virus 1)
PROPERTY: Ki
Could you give the number and then its unit, please?

COMPOUND	TARGET	PROPERTY	MEASURED
CC(C)[C@H](NC(=O)OCc1ccccc1)C(=O)NC(Cc1ccccc1)C(=O)C(F)(F)C(=O)NCc1ccccc1 (stereo not given in full)	Human immunodeficiency virus type 1 protease (Human immunodeficiency virus 1)	Ki	1 nM
CC(C)[C@H](NC(=O)OCc1ccccc1)C(=O)NC(Cc1ccc(OCc2ccccc2)cc1)C(=O)C(F)(F)C(=O)NCc1ccccc1 (stereo not given in full)	Human immunodeficiency virus type 1 protease (Human immunodeficiency virus 1)	Ki	5 nM
CC(C)[C@H](NC(=O)OCc1ccccc1)C(=O)NC(Cc1ccc(OCc2ccccc2)cc1)C(=O)C(F)(F)C(=O)N1CCOCC1 (stereo not given in full)	Human immunodeficiency virus type 1 protease (Human immunodeficiency virus 1)	Ki	5 nM
CC(C)[C@H](NC(=O)OCc1ccccc1)C(=O)NC(Cc1ccccc1)C(=O)C(F)(F)C(=O)N1CCOCC1 (stereo not given in full)	Human immunodeficiency virus type 1 protease (Human immunodeficiency virus 1)	Ki	70 nM

Consider now this further compound.
// query Ki value for entry CC(C)[C@H](NC(=O)OCc1ccccc1)C(=O)NC(Cc1ccc(OCc2ccccc2)cc1)C(=O)C(F)(F)C(=O)N(C)Cc1ccccc1 (stereo not given in full)
0.4 nM

----------
I'd appreciate it if you could supply IC50 values for the items below.
# TARGET: Human immunodeficiency virus type 1 protease (Human immunodeficiency virus 1, UniProt Q72874)
Answers are plain numbers, in nM.

A selection of reference data follows.
COMPOUND	IC50 / nM
CCN(Cc1ccccc1)C(=O)C(F)(F)C(=O)C(Cc1ccc(OCc2ccccc2)cc1)NC(=O)[C@@H](NC(=O)OCc1ccccc1)C(C)C (some centres undefined)	15
O=C(NC(C(=O)NC(Cc1ccc(OCc2ccccc2)cc1)C(=O)C(F)(F)C(=O)NCc1ccccc1)C1CCCC1)OCc1ccccc1 (centres undefined)	6
CC(C)C[C@H](NC(=O)OCc1ccccc1)C(=O)NC(Cc1ccc(OCc2ccccc2)cc1)C(=O)C(F)(F)C(=O)NCc1ccccc1 (some centres undefined)	15

Any idea what its IC50 is? The compound is CC(C)[C@H](NC(=O)CCc1cccnc1)C(=O)NC(Cc1ccc(OCc2ccccc2)cc1)C(=O)C(F)(F)C(=O)NCc1ccccc1 (some centres undefined)
8
